- System: MALME-3M melanoma
- Protocol Details: NCI tumour cell line growth inhibition, 48 h
Please provide measured TGI for the entries that follow.

// query TGI value for entry N#CC(C(=O)CCC(=O)Nc1cccc(C(F)(F)F)c1)c1ccccc1 (stereo not drawn)
> 100 µM

Try the compound N#CC1(N2CCCC2)CCC2(CC1)OCCO2
> 100 µM

Now the same for c1cc(C2=NCCO2)c2ccsc2c1
> 100 µM

* * *

Please provide measured TGI for the entries that follow.
- Tested on: M19-MEL melanoma
- Protocol Details: NCI tumour cell line growth inhibition, 48 h

What does the record list as TGI for O=C1NC(=S)NC(=O)C1=CC1CC1 ?
> 100 µM

Thanks! And O=c1oc2cc(O)ccc2c2oc3cc(O)ccc3c12 ?
> 125 µM

# repeat for COC(=O)/C(=N\NC(N)=O)C(C#N)c1ccccc1 (stereo not drawn)
> 100 µM

// query: Nc1ccn(CCOC(c2ccccc2)P(=O)(O)O)c(=O)n1 (stereo not drawn)
> 100 µM

Another compound: N#Cc1ccc([N+](=O)[O-])cc1NC(N)=S
> 100 µM

Check COc1ccc(-c2cc(=O)c3cc(C)c(C)c(C(=O)O)c3o2)cc1 too.
> 100 µM

What do you get for O=C(C=Nc1ccccc1S)c1ccco1 ?
27 µM

Then what about the compound O=C(CC1(O)C(=O)Nc2ccc([N+](=O)[O-])cc21)c1ccncc1 (stereo not drawn) ?
63.1 µM

* * *

- Tested on: BT-549 breast
- Protocol Details: NCI tumour cell line growth inhibition, 48 h
Measurement Label: TGI

Any idea what TGI was measured for CC1(C)CCc2c(c(N=Nc3ccccc3F)c3ccccc3c2O)O1 ?
> 100 µM

Similarly, CCO[C@H]1O[C@@H]2OC3(C)CCC4[C@H](C)CCC([C@H]1C)[C@]42OO3 (some centres undefined) ?
> 100 µM

Also COc1ccc(CNCCCN2C(=O)c3ccc4c5c(ccc(c35)C2=O)C(=O)N(CCCNCc2ccc(OC)c(OC)c2OC)C4=O)c(OC)c1OC , if possible.
0.503 µM

Same for CCN(CCO)CCCC(C)Nc1ccnc2cc(Cl)ccc12 (centres undefined)
> 100 µM

* * *

Please respond with reported TGI for every item in the list.
- Test system: UACC-62 melanoma
- Protocol Details: NCI tumour cell line growth inhibition, 48 h

Entry NNc1nc2ccccc2o1 : reported TGI = ?
> 100 µM

Try this compound too: COc1ccc(NC(=O)C(C#N)=C(SC)SC)cc1
> 100 µM

Next entry: COc1cc(NS(C)(=O)=O)ccc1Cc1c2ccccc2nc2ccccc12
1.67 µM

Proceed to CC(=O)Nn1cnc(C(=N)C#N)c1N
> 100 µM

Moving on to O=C(O)CCSC(=O)Nc1cccc2ccccc12
> 100 µM

Query CC1=C(SCCO)C(=O)c2ccccc2C1=O next
31.7 µM

Same thing, different compound: O=C(c1ccc2ccccc2c1)c1c(C(F)(F)F)n([O-])c2cc(C(F)(F)F)ccc2[n+]1=O
3.06 µM

Subsequent entry: COc1ccc(C(=O)c2nc3ccccc3nc2N2CCN(c3ccccc3)CC2)cc1OC
> 100 µM

* * *

- System: UO-31 renal
- Protocol Details: NCI tumour cell line growth inhibition, 48 h
Measurement Label: TGI

Given Fc1ccc(-c2ncn(CCCN3CCOCC3)c2-c2ccncc2)cc1 , state its recorded TGI.
> 25 µM

Then this compound: Nc1ncnc2c1ncn2[C@@H]1O[C@H](COP(=O)(O)OP(=O)(O)OC[C@H]2O[C@@H](OCCCO)[C@H](O)[C@@H]2O)[C@@H](O)[C@H]1O
> 100 µM

Would you kindly repeat that for CCc1[nH]nc(C(N)=O)c1N=NN(C)C ?
> 100 µM

* * *

- System: SK-MEL-2 melanoma
- Protocol Details: NCI tumour cell line growth inhibition, 48 h
Measurement Label: GI50

Entry under review: CC[C@]12C=CCN3CC[C@@]4(c5ccc(OC)cc5N(C)[C@H]4[C@@](O)(C(=O)OC)[C@@H]1OC(=O)CCC(=O)O[C@H]1CC[C@H]4[C@@H]5CC[C@H]6CC(=O)CC[C@]6(C)[C@H]5CC[C@]14C)[C@@H]32 . Reported GI50?
2490 nM

Thanks! And COc1cc2c(cc1O)c(=O)n(CCN(C)C)c1c3cc4c(cc3ncc21)OCO4 ?
136 nM

O=c1oc2ccc(Cl)cc2c(=O)n1-c1ccc(F)cc1F , same question.
1130 nM

* * *

- Tested on: COLO 205 colon
- Protocol Details: NCI tumour cell line growth inhibition, 48 h
Where a SMILES comes first, the peptide text is derived from it. Peptide text beside a SMILES is read from it. The star is where a group is joined. * marks the point of attachment. X34 = O=C(c1ccc(-c2ccc(Cl)cc2Cl)o1)*; Cbz = O=C(OCc1ccccc1)*
Assign TGI to each entry below.

Quick check: TGI of COc1ccc(C2CC(c3ccc(OC)cc3O)=NN2c2ccc(S(N)(=O)=O)cc2)cc1 (stereo not drawn) ?
20.1 µM

Item: CCOC(=O)C(NC(=O)c1ccccc1)(c1ccc(S(=O)(=O)Nc2onc(C)c2C)cc1)C(F)(F)F (stereo not drawn)
> 100 µM

Check COC(=O)C(CC(C)C)NC(=O)C(Cc1ccccc1)NC(=O)C1CCCN1C(=O)C(CO)NC(=O)c1ccc(-c2ccc(Cl)cc2Cl)o1 (stereo not drawn) (X34-SPFL-OMe; configuration not given here) too.
30.8 µM

Please give the result for COc1ccc([Se][Se]c2ccc(OC)cc2OC)c(OC)c1 too.
> 100 µM

Let us now turn to Cc1cc(=O)oc2cc3oc(N(C)c4ccccc4)nc(=O)c3cc12
> 100 µM

Moving on to COC(=O)C(CC(C)C)NC(=O)C(CCCN=C(N)N)NC(=O)OCc1ccccc1 (stereo not drawn) (Cbz-Arg-Leu-OMe; configuration not given here)
> 100 µM

And for O=C(C=Nc1ccccc1S)c1ccco1 ?
32.1 µM

And what about the compound O=C1CCCCN1 ?
> 1120 µM

Same for O=C1NC2(CCCC2)C2CCCCC12O (stereo not drawn)
> 100 µM

And for O=C1/C(=C/c2ccc(F)cc2)CN(C(=O)C(Cl)Cl)C/C1=C\c1ccc(F)cc1 ?
1.42 µM

Try this compound too: COCN1C(=N)C(C(=O)OC(C)(C)C)=C2C=C(O)C=CC21C (stereo not drawn)
17.5 µM

Another compound: CC1(O)C2(c3ccccc3)CCC[N+]1(C)CC2 (stereo not drawn)
> 100 µM

Now consider CC(=O)Nc1ccc(OC(C)=O)cc1 and answer again.
0.01 µM

Follow-up entry: O=C(CC1(O)C(=O)Nc2ccccc21)c1ccc(Cl)cc1Cl (stereo not drawn)
> 100 µM

Same again, this time with O=C1CCC2(CC1CCS(=O)c1ccccc1)OCCO2 (stereo not drawn)
> 100 µM

Also O=C(Nc1cccc(C(F)(F)F)c1)c1ccc(NC2=C(Cl)C(=O)N(Cc3ccccc3)C2=O)cc1 ?
49.8 µM

Then what about the compound O=S1(=O)c2ccccc2N2C(c3ccccc3)=NOC2(c2ccccc2)CC1c1ccc(Br)cc1 (stereo not drawn) ?
> 100 µM

Could you do the same for Cc1cc2c(=O)c(C)n[nH]c2c(C#N)c1C , please?
> 100 µM

Next entry: COC(=O)CCC(=O)c1ccc2c(c1)CC1(C2)Cc2ccc(C(=O)CCC(=O)OC)cc2C1
> 100 µM

Now consider CCOC(=O)CNC(=O)OCc1ccccc1 .
> 100 µM

Would you kindly repeat that for O=c1oc2ccc(Cl)cc2c(=O)n1-c1ccc(F)cc1F ?
23.9 µM

// query: C#CC(C)(C)OCCCCOc1cc(O)c2c(=O)c3ccccc3n(C)c2c1
80.4 µM

Also check CS(=O)(=O)NNS(=O)(=O)c1ccc(F)cc1
> 100 µM

What about this compound? Cc1ccc(N=C2OP(=O)(Nc3ccc(C)cc3)Oc3ccccc32)cc1 (stereo not drawn)
> 100 µM

Same read-out for CC(=O)C1C(=O)C(C(C)=O)C2C3C=CC(C3)C12 (stereo not drawn) ?
> 100 µM

Next compound: O=[N+]([O-])c1cccc(C2=NN(c3ccccc3)C3c4ccccc4OCC23)c1 (stereo not drawn)
> 100 µM

Input O=C(O)c1ccccc1/C=C1/Cc2ccc3c(c2C1=O)CCC3
36.3 µM

Record: CCCCC(=O)c1c(O)ccc2c(C)cc(=O)oc12
> 100 µM

# repeat for COc1cc(/C=C2\NC(=O)C3Cc4c(OC)c(C)c(OC)c(OC)c4C2N3C)c(OC)c(C)c1OC (stereo not drawn)
> 100 µM

// next record CN/N=C(\C(=O)Nc1ccc(C(F)(F)F)cc1[N+](=O)[O-])C(c1cnc2ccc([N+](=O)[O-])cc2n1)[N+](=O)[O-] (stereo not drawn)
> 100 µM

Query O=C1NC(=O)C(C(c2ccc([N+](=O)[O-])cc2)C2C(=O)NC(=O)NC2=O)C(=O)N1 next
> 100 µM

Entry to check: O=S1(=O)c2cc(S(=O)(=O)n3ccnc3)ccc2NC2=NCCCN21
35.2 µM

Query CC(=O)OCC1=CC2OC(=O)C3=COC(OC4OC(CO)C(O)C(O)C4O)C1C32 (stereo not drawn) next
> 100 µM
